The origin of these recorded values is PubChem BioAssay (NCATS).

- Tested on: CP335
- protocol.details: qHTS profiling for inhibitors of Plasmodium falciparum proliferation (AID 504749);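 also: 0% = DMSO vehicle and full inhibition = artemisinin control; nearly all actives have a fitted effect of over 60% in size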
- protocol.conditions: P. falciparum in erythrocytes, SYBR Green DNA, 72 h; series mostly up to 28.7 µM
Records with an inconclusive call do not appear. Activity calls are given as the source filed them. Calls follow the shape of the dose curve; as a rule, active = well fitted inhibition curve with a large enough effect; inconclusive = small, poorly fitted or top-dose-only effect; inactive = flat fitted curve, though single readings scatter. Bridge positions count the residues as written; N and C are the ends. Square brackets hold non-standard residues; d marks the D form. Peptide text beside a SMILES is read from it. * marks the point of attachment. ξ: configuration not given here. ξDab(CH2SO3H) = NC(CCNCS(=O)(=O)O)C(=O)O; Heptanoyl(6-Me) = CC(C)CCCCC(=O)*; Dab = NCC[CH](N)C(=O)O
assay.endpoint: outcome

[[record]]
compound = "CC(C)C(NC(=O)C(CC(=O)O)NC(=O)C(CCCCN)NC(=O)C(N)CCCN=C(N)N)C(=O)NC(Cc1ccc(O)cc1)C(=O)O (centres undefined) (H-RKDVY-OH; configuration not given here)"
tested_target = "CP335"
result = "inactive"

[[record]]
compound = "CCC1NC(=O)C(NC(=O)c2ncccc2O)C(C)OC(=O)C(c2ccccc2)NC(=O)C2CC(=O)CCN2C(=O)C(Cc2ccccc2)N(C)C(=O)C2CCCN2C1=O (centres undefined)"
tested_target = "CP335"
result = "inactive"

[[record]]
compound = "CCC(Oc1ccccc1)C(=O)NC1C(=O)N2C1SC(C)(C)C2C(=O)O (centres undefined)"
tested_target = "CP335"
result = "inactive"

[[record]]
compound = "CCC(C)C1NC(=O)C(CCNCS(=O)(=O)O)NC(=O)C(NC(=O)C(CCNCS(=O)(=O)O)NC(=O)C(NC(=O)C(CCNCS(=O)(=O)O)NC(=O)CCCCC(C)C)C(C)O)CCNC(=O)C(C(C)O)NC(=O)C(CCNCS(=O)(=O)O)NC(=O)C(CCNCS(=O)(=O)O)NC(=O)C(C(C)CC)NC1=O (centres undefined) ({Heptanoyl(6-Me)}-[ξDab(CH2SO3H)]T[ξDab(CH2SO3H)][Dab][ξDab(CH2SO3H)]II[ξDab(CH2SO3H)][ξDab(CH2SO3H)]T; lactam 4-C; configuration not given here)"
tested_target = "CP335"
result = "inactive"


###

- protocol.details: qHTS for Inhibitors of Plasmodium falciparum (7G8) proliferation (AID 504316); also: nearly all actives have a fitted effect of over 65% in size
- protocol.conditions: P. falciparum 7G8 in erythrocytes, SYBR Green DNA, 72 h; series mostly up to 6.7 µM
Records with an inconclusive call do not appear. Active and inactive are the calls of the source. Calls come from the whole dose curve; as a rule, active = well fitted inhibition curve with a large enough effect; inconclusive = small, poorly fitted or top-dose-only effect; inactive = flat fitted curve, though single readings scatter.
I would appreciate it if you answered using one of these outcomes: 1 for active, 0 for inactive

[[record]]
molecule = "CCCCC1=CC2=CC(=O)C(C)(OC(=O)CC)C(=O)C2=CN1CCOC (centres undefined)"
class_label = 0


QUERY: Hey, what did the test say about CCCCC1=CC2=CC(=O)C(C)(OC(=O)CC)C(=O)C2=CN1CCCN(CC)CC (centres undefined) ?
RESULT: 0

QUERY: Any idea what this test logged for CCCCC1=CC2=CC(=O)C(C)(OC(=O)CC)C(=O)C2=CN1CC(C)C (centres undefined) ?
RESULT: 0

QUERY: Hey, what did the test say about COC(=O)C1=C(C(=O)OC)[C@@H]2N(C)c3ccc(OC)cc3[C@@]23C[C@@H](C(=O)OC)N(S(=O)(=O)c2ccc([N+](=O)[O-])cc2)C3=N1 ?
RESULT: 1

QUERY: What call does the record list for COc1cccc([C@@H]2Oc3ccc(Br)cc3[C@H](O)[C@@H]2O)c1 ?
RESULT: 0

QUERY: Outcome logged for COC(=O)[C@@]1(C=C2c3ccc(F)cc3[C@@H](OC)[C@@H]2C)[C@@H]2CC=C[C@@H]21 in this assay:
RESULT: 0

QUERY: Recorded test outcome, item CCOC(=O)CN1C(=O)N[C@@H](c2cccc(C(F)(F)F)c2)C(C(C)=O)=C1C
RESULT: 0

QUERY: Please let me know the test result on file for COC(=O)N1CCc2cc(OC)c(OC)cc2C1Cc1ccc(OC)cc1 (centres undefined) .
RESULT: 0

QUERY: Status in this test for COC(=O)C(C(=O)OC)C1c2ccccc2C=C(C)N1C(=O)OC (centres undefined) ?
RESULT: 0
